Cited source for all entries: PubChem BioAssay (NCI)

system: A549/ATCC NSCLC; test: NCI-60 one-dose screen, 48 h (100 = growth as untreated, 0 = no growth, -100 = all killed); details: 10 µM unless noted
Compounds without any hit were thinned out: in the full panel of roughly 83,000, 20% have a hit.
QUANTITY NAME: growth (%)
Numbers only, in %.

| MOLECULE | QUANTITY NAME | UNITS TEXT | TEST RESULT |
| --- | --- | --- | --- |
| O=S(=O)(OCCO)c1ccccc1 | growth | % | 97.2 |
| Cc1ccc2c(N/N=C\c3ccco3)cc(C)nc2n1 | growth | % | 46.4 |
| CN1CCn2c(c(Sc3ccc(C(=O)NO)cc3)c3ccccc32)C1=O | growth | % | 62 |

Parameter requested: growth. Apply to each item below.
1. CN(C)c1ccc(/C=C(\C#N)c2cc3ccccc3n2C)cc1
2. O=C(NCc1cccnc1)c1ccc([N+](=O)[O-])o1
3. CC(=O)Nc1ccc(Sc2ccc([N+](=O)[O-])o2)cc1
4. CC1=CN2C(=NC3=C(CCCC/C3=C\c3ccccc3)C2c2ccccc2)S1 (centres undefined)

1. 24.6
2. -10.5
3. 65.1
4. 108

Give growth for each listed item.
1. CCC(C)[C@H]1O[C@]2(CC[C@@H]1C)C[C@@H]1C[C@@H](C/C=C(\C)[C@@H](OC3C[C@H](OC)C(O[C@H]4C[C@H](OC)[C@@H](O)[C@H](C)O4)[C@H](C)O3)[C@@H](C)/C=C/C=C3\CO[C@@H]4[C@H](O)C(C)=C[C@@H](C(=O)O1)[C@]34O)O2 (some centres undefined)
2. COc1ccc(-c2nc(Nc3ccc(F)cc3)nc(Nc3ccc4c(c3)nc(C)n4Cc3ccccc3)n2)cc1

[21.3, 32]
